# credit: PubChem BioAssay (NCI)

- Tested on: HOP-92 NSCLC
- test_name: NCI tumour cell line growth inhibition, 48 h; in the data active = GI50 below about 0.43 µM; inactive = the rest
Respond only with the outcome that fits, drawn from active, inactive

Some entries whose results are on file:
[
  {
    "compound": "COc1cc2c(F)nccc2cc1C(=O)N[C@@H](c1ccc(F)c(Cl)c1)[C@@H]1C[C@@H](O)CN1",
    "system_under_test": "HOP-92 NSCLC",
    "group_label": "active"
  },
  {
    "compound": "C/C1=C/C(=O)O[C@@H]2C[C@@H](CC[C@H](C)/C=C\\C=C\\CC1)O[C@@](O)([C@@H]1CSC(=O)N1CO)C2",
    "system_under_test": "HOP-92 NSCLC",
    "group_label": "active"
  },
  {
    "compound": "NC(=O)C1c2ccccc2C=Cc2ccccc21",
    "system_under_test": "HOP-92 NSCLC",
    "group_label": "inactive"
  },
  {
    "compound": "Cc1nc2ccccn2c1NC(=O)NNC(=S)Nc1ccc(Br)cc1",
    "system_under_test": "HOP-92 NSCLC",
    "group_label": "inactive"
  },
  {
    "compound": "C[C@H](N)C(=O)N[C@@H]1[C@H]2C(=C(O)C[C@@H](O)[C@@H]2O)C(=O)O[C@]1(C)C(Cl)Cl",
    "system_under_test": "HOP-92 NSCLC",
    "group_label": "active"
  }
]

Challenge: Entry Cc1cc(C(=O)Nc2nc3cccc(Cl)c3n2[C@@H]2CCCCN(C(=O)/C=C/CN(C)C)C2)ccn1 : call = ?
Response given: inactive

Challenge: Entry NCCCCCCCCn1c2c(c3ccccc3c1=O)C(=O)c1ccccc1-2 : call = ?
Response given: inactive

Challenge: Entry N=C(N)/N=C(\N)c1c(-c2cc(O)ccc2O)nc2sccn12 : call = ?
Response given: inactive

Challenge: Entry CC(=O)[O-].CC(=O)[O-].O=C(N/N=C/c1cc(Cl)cc(Cl)c1O)c1ccncc1.[Ni+2] : call = ?
Response given: inactive

* * *

- Tested on: 786-0 renal
- test_name: NCI tumour cell line growth inhibition, 48 h; in the data active = GI50 below about 0.43 µM; inactive = the rest
Respond only with the outcome that fits, drawn from active, inactive

[
  {
    "molecule": "CC(C)CC1C(=O)N2CCC[C@H]2C2(O)O[C@](NC(=O)C3C=C4c5cccc6[nH]c(Br)c(c56)C[C@H]4N(C)C3)(C(C)C)C(=O)N12 (stereo not given in full)",
    "group_label": "inactive"
  },
  {
    "molecule": "COc1cc2c(F)nccc2cc1C(=O)N[C@@H](c1ccc(F)c(Cl)c1)[C@@H]1C[C@@H](O)CN1",
    "group_label": "active"
  },
  {
    "molecule": "COC(=O)[C@H]1[C@@H](O)[C@@]2(O)c3c(OC)cc(O[C@@H]4O[C@@H]([C@H](O)CO)CO[C@H]4OC)cc3O[C@@]2(c2ccc(OC)cc2)[C@@H]1c1ccccc1",
    "group_label": "active"
  },
  {
    "molecule": "Cc1nc2ccccn2c1NC(=O)NNC(=S)Nc1ccc(Br)cc1",
    "group_label": "inactive"
  }
]

Challenge: Entry CCCCCCCCCCCCNC(=O)[C@H]1CSC(c2cc3ccccc3s2)N1 (stereo not given in full) : call = ?
Response given: inactive

Challenge: Entry COc1ccc(CCN2CCCN3C2=Nc2ccccc2S3(=O)=O)cc1 : call = ?
Response given: inactive

Challenge: Entry COc1ccc(-c2nsc3c2NC(=O)CC3c2ccc(F)cc2)cc1 (stereo not given) : call = ?
Response given: inactive

Challenge: Entry C[C@H](N)C(=O)N[C@@H]1[C@H]2C(=C(O)C[C@@H](O)[C@@H]2O)C(=O)O[C@]1(C)C(Cl)Cl : call = ?
Response given: active

Challenge: Entry O=Cc1ccc(-c2ccc(-c3nc4ccccc4[nH]3)cc2)s1 : call = ?
Response given: inactive

Challenge: Entry N=C(N)/N=C(\N)c1c(-c2cc(O)ccc2O)nc2sccn12 : call = ?
Response given: inactive
